# measurement-notes: soluble on expression in E. coli; label from the status in PepcDB or PDB records

{"columns": ["sequence-text", "soluble on expression in E. coli"],
 "data": [
  ["RRENARRFDRKQYDFVDIDECAIQTKTYPGSDHDMAQDWLQKQMMILKPKYREPLLLSLVAGLNHDEIAQALRLNHNTVATRLFRARNQLIAQQGNH", "not soluble"],
  ["MNTLSDSASPLYEKVKDFVLGNIGSGKWARNSRLPSENELVSALGVSRMTVHRALRELTSEGHLRRIQGVGTFVAPPRPRSTLIEISNIITEIKTRGSRHRAEVVVLERIARPEPELLLAFEFETVKPVDHSVVIHFENDLPVQLEERYVNPNLVSGYIDQDFAAVATYDYLQNATPLTEVEHLISALPANAEQARLLNVRPGDCCLILHRKTWTGPVVATVNTFTYVGSRYSLGSRYLHGGK", "not soluble"],
  ["MGSDKIHHHHHHMEVFCDVDDFCAVFIPEWEKTLLTDGTRKRQRAGRMTMSEVMTIIILFQMSHHRDFKNFYIGYLAHFYKSAFPNLLSYTRFLEVMPTALVPLCSDFTCLKSEPTGTEFVDSTRIKVCHNLRIHRHKTLAGLACRGKGTMGWFYGFKLHLIVNHQGGIVAAKVTPANVHDTKPMNEMVRSDMDKLYADKGFISKALSSELQEKGVTLVTNVRKNMKEKVMSLWDRAMLSRRFIIETINDQLKNISQIEHSRHRSGHGFMLNMIAGLIAYQLKDNKPQLNITSAEFNAIAVMAR", "not soluble"]
]}

---

# measurement-notes: soluble on expression in E. coli; label from the status in PepcDB or PDB records

{"columns": ["sequence-text", "soluble on expression in E. coli"],
 "data": [
  ["MAANSLPQDISDVELVHLARAAMKRAHCPYSKFPVGAALLTESGEIVQGCNVENASYGGTICAERSAIVSAVSQGYTKFRAIAVVTELSEPASPCGLCRQFLVEFGDYKVVVGTASNNKILITSTRALLPFAFTPESLDTFEQEKASEAKGLKQDDATEHNVTVVS", "not soluble"],
  ["GPEQVLDRASMHLANGLLGNPDSAAGLEVLLGGLKLRFVSGSAVAVTGAEGMVTLDGTELPLNKAVRVPPGAVLELGPAMFGIRYYLAVQGGISAQGEAAQGEAIRAGAALTFGRPNNHGSPEVNHPARRALDPERPVVARVSRGPQAQNDDAGTWLRLTSEPWILSPESDRAGARLVGRPLDVTSAPIPQAQPLVSGSVLLPSSGLPVIALAGHPDTSQSPVIAVVRDEDLDVLGQARPGQMVHLLG", "not soluble"],
  ["QSFWEEIAPPFISNEPNVKYIIPNMGIDSKGTIYVTVTKRIQQGANYTSEQLGMYYRPLGDNEQWWKHDPYFDDKIVADIQTDAYGRVYVCTTSSRDQEYQLYINEQNEWRCIFKTSVSTYEHGMAVFRSSTGVTYIGTRHHIFASGVNDFEFNTIYEDSTPMSCRFAEATNSGTIYLALMHETTMSTTILTYQNGEFVDISESELSNSIIASMCSNKEGD", "not soluble"]
]}

---

# measurement-notes: soluble on expression in E. coli; label from the status in PepcDB or PDB records

{"columns": ["sequence-text", "soluble on expression in E. coli"],
 "data": [
  ["VGDLYYHVGVNATFIKNELTEVNGSRDEWQGFNPHAKGTITYAKTGHSIGYFNLIKTDGVFQSQQEIDAYVDKNGNKIQPNAQPGDLRFVDYNGDGKIDNNDRQDVGSAFPKVNLGVSLGAEWKGLDLNMFFDGNFGNKIYNAQYYSTVYNESTGNQYAERMNSWTENNHSDIPRCLFGTSDPNGTNWGYTDRWLENGSFLRLKTLELGYTLPKVWVSKAGLQNVRVYTAMENLFTITDYKGYTPDLGMVDADGAGTSGGSGVMTRGCDDGRYPMARTITFGLQVNF", "not soluble"],
  ["DQVSSLSSKYAVRLYEIIISWRAAGKTPMFSTMELRERLGMMPDEYQKMELFKRKVLDFAVKQINDKTDISITYEQHKEGRKIVGFTFSILHKIGSKDIPLENQSELFAGMTDLEAGTIRVRAEAYIASLIAKGQNVTKAHRLNILKKAVEERWGFEDVAKDNGAKNPENKNAKVVLNEWEKISNGTRFKDKDGTIWVKDSGMLRTEGTNRWIADSQIAKLFPMLTVMVEEGI", "not soluble"]
]}

---

# measurement-notes: soluble on expression in E. coli; label from the status in PepcDB or PDB records

{"columns": ["sequence-text", "soluble on expression in E. coli"],
 "data": [
  ["YATQSKNTNILLEYVSANPTGDLHIGHARNAAVGDSLANILIAAGYNVTREYYINDAGNQITNLARSIEARYFEALGDTSYEMPADGYNGKDIIEIGKDLAVKHPEIKDYSDEERLKTFRQLGVDYEMEKLKKDLSDFNVHFDNWFSETSLYENGAIKNTLSKMKELGYTYEADGATWLRTSDFKDDKDRVLIKKDGNYTYFTPDTAYHYNKINRGNDILIDLMGADHHGYINRLKASLETFGVDSDRLEIQIMQMVRLMQNGEEVKMSKRTGNAITLREIMDEVGIDAARYFLTMRSPDSHFDFDLELAKEQSQDNPIYYAQYAHARICSILKQAKE", "not soluble"],
  ["MMLHAQHMPGQPGTPSLVFLHGFSGDCHEWQPVGEQFHGCSRLYIDLPGHGGSAAIPVDGFADVIRLLRATLISYNILKFWLVGYSLGGRVAMMAACQGIPGLCGLVVEGGHPGLQNEQARAERRLSDGRWAERFRHEPLTEVFHDWYQQPVFASLTAQQRQALTALRSQNNGETLAAMLEATSLAVQPDLREALNALAFPFYYLCGERDSKFRALAQEVAATCHVIRNAGHNAHRENPAGVVDSLAQILRL", "not soluble"]
]}

---

# measurement-notes: soluble on expression in E. coli; label from the status in PepcDB or PDB records

{"columns": ["sequence-text", "soluble on expression in E. coli"],
 "data": [
  ["LIPILGLGNYTAQVDIELDFSAVEQTRKVFDPNTPATRSEYTLEDYNNGNVVAGVPGALSNQPPADASIPQDVAQMKDGSVMGQGSVHKEATRNYELDTTISHERKQSGVINRQTVAVAVKSRSSVNPDTGEVTYTPLSEADLNSIRQVLIGTVGYSENRGDLLNVLSMPF", "not soluble"],
  ["MGSDKIHHHHHHMKGGTEPVETSKMEKAAALLGGMIDLPTIPAVAIQVLSLLDEPEVDVDDVAELVLTDQVMAARVLKMVNSPLYRPATEITSLKGALVYLGLRHIREFILTCSIIQCSEGKDGVLGVKPFWEHSFGVGIVARLIAEKVGYHDTEKAYIGGIIHDIGEVFLSYYMRDEFQKIVDSISDKPHKLVEAEEEFLGTTHCEIGLCIARAWRFPDDYCEVIAHHHAPQEAKNAPRLTAIVNLADLFCNVRQLDYGGKAWVSFSLADEPAWGMLQGPGSRLSELDIERFCYELDDRVEEISELVGNIFKNG", "not soluble"]
]}

---

# measurement-notes: soluble on expression in E. coli; label from the status in PepcDB or PDB records
endpoint: soluble on expression in E. coli

{"columns": ["sequence-text", "obs-value"],
 "data": [
  ["MEKNMKIELITIKEFIEQAECYFRNYMDGLRRNAPDDFYYFLNNKYNMNDIMESIIKKTRYHFYDDTEEGKRNRIYGEVNHCKVKQHLRQLWIVYKCVYR", "soluble"],
  ["MGKKPISILLMGTDTGALGRSYKGRTDSMMVVTINPKTKKTTITSIPRDLGVTIPGYESKSPSKINAAYAFGQAGTAIKTVQQVFNVPIDFYVLVNMGGMEKVVDEAGGVDITPTLSFTYDGYTFTKGVKTHMNGKKALAYSRMRYDDPQNDYGRQTRQRAVLTAIISKSSSVSSLLNKDFIDSISNETKTDFTFNDLVDLAKNYRSSTGSIEETHAQGDGQMVNGQSMEIVSNTELQRVTNFIRNGLSLEHEKTGTAALSASSANTSDSSVEAANINAGNLEHHHHHH", "soluble"],
  ["MASGASATQRIPSKRQTLDEAYAPPANFLEIEVINPITHGVGKMRYTDYEIRMRSNLPVFKQKESSVRRRYSDFEWVRAELERDSKIVVPTLPGKSFKRQLPFRSDDGIFEEEFIENRRKALELFINKVAGHPLAQNERSLHIFLQEPTIDKNYVPGKIRTA", "soluble"],
  ["MGSDKIHHHHHHMTVEYTASDLATYQNEVNEQIAKNKAHLESLTHPGSKVTFPIDQDISATPQNPNLKVFFFDIDNCLYKSSTRIHDLMQQSILRFFQTHLKLSPEDAHVLNNSYYKEYGLAIRGLVMFHKVNALEYNRLVDDSLPLQDILKPDIPLRNMLLRLRQSGKIDKLWLFTNAYKNHAIRCLRLLGIADLFDGLTYCDYSRTDTLVCKPHVKAFEKAMKESGLARYENAYFIDDSGKNIETGIKLGMKTCIHLVENEVNEILGQTPEGAIVISDILELPHVVSDLF", "not soluble"],
  ["MRGSVPSVREIETLLSQLPWRQFQSPRVHLEQYTTPVHLAARIAHHVALCIDEDERRSVQAVDLGTGTGILALALCLAGLNHVLGVDVDSEALELARANAAALWELCPQSVGAVLEFAAVDVQPNSLALAPKSFDVAVLNPPFGTRQRSADIAFLDVACHLSRRFVYSLHKSSTRSYLSRRLERFGCTAQVYARLRFDLPATYVFHRERAVDIDVDLWQIEVKR", "not soluble"],
  ["MGHHHHHHSHMKTTLKMTALAALSAFVLAGCGSHQMKSEGHANMQLQQQAVLGLNWMQDSGEYKALAYQAYNAAKVAFDHAKVAKGKKKAVVADLDETMLDNSPYAGWQVQNNKPFDGKDWTRWVDARQSRAVPGAVEFNNYVNSHNGKVFYVTNRKDSTEKSGTIDDMKRLGFNGVEESAFYLKKDKSAKAARFAEIEKQGYEIVLYVGDNLDDFGNTVYGKLNADRRAFVDQNQGKFGKTFIMLPNANYGGWEGGLAEGYFKKDTQGQIKARLDAVQAWDGK", "not soluble"],
  ["MGSDKIHHHHHHMAYFMLLMTTPIQATIQQSMALAKAHYENFPVASVLLPKDLRAPVGLVYAFARQADDFADEGELSPEERLALLDGFRSQLDQIKHGATPDTPLFQALQAMIQERDLPLEPFYDLLSAFSQDVVKARYANFGEVIDYCRRSANPVGRLMLHLYKQATPRNVALSDAICTSLQLINFLQDVDVDYRKNRIYLPLDELQKYNITEQQIAGQHSGGTWSLFMEFQVNRTRKLLQSGAPLGLALPGRIGLEMRMIIAGGERILKKLHHVRGDVFNQRPTLKPTDWAYMLYRAVRKK", "not soluble"],
  ["MGSDKIHHHHHHMKQFQIVGIGNALVDVLSHCDDAFLAENGIAKGIMQLIDMGRAVDLYGRIGPAQEISGGSAANTIAGIAQLGGRTAYVGKVCDDQLGAIFAHDLRAQGAVYETPMAPKGGAQETGRCIILVSPDGERSMNTCLGWSEFLTPDDIDEAQMASTEWIYLEGYRFDGPESHAAFAKAIAACRGAGGRVSLTLSDPFCVERHRDAFRRMIREDVDLLFANRAEILSMYRTEDFGAALKAAAAEVAIVACTESEKGAHILADGQHWHVPALPTQIVDATGAGDLFAGAFLWGLTHGHGYETAGRMGCIAASEVISHLGARPEADLRALFRAQGVL", "not soluble"],
  ["MSYRQMLIHRCDIYHEAAQAPSAGRFGIPADRLQPVISYPDTPDEQDVPCYFTEKTQQLIQEEPDQTVYHSFLVHFPLSADIRVNDKIIWENHKYILKLPKRIRHHHWEVVAVRDESLLEHHHHHH", "soluble"],
  ["MEYMVLIYRDEAFAPEYGSPEWEQMMGGFLAFNQRLIDGGHWIAGGGLQTTPSATTVRLAAGTVPKVLDGPYAETKEQLGGFYLVRADTLDEVLDLARSLPIEGAIEVRPLTYRPTGE", "not soluble"],
  ["YCTLDDLILSFGQDEIYRLIATDQEAEKALDDAQAEIDMYLSDRYALPVKSVPKSLNRIACDIAHYYLYNSVDEDSTVYLRYKHRIKQLSDVAAGKLSLGLYDKSDDATTDNQVVFIKSSKKVFAR", "not soluble"],
  ["SYHTGTAYGMIDLPRILRSITTFESFGKVKIGILKKGIQAIESLLVARHQMYSAVYMHPTVRIADTMIKRAVIKEIQEKNLDIKDLANMDDIALVSFLRISENYLMERIDRRNLYKNLITYSYFDLNPIEKWIFVNLDEKQILSLESRFYEEFGWDIFIDIYPIPKMEEHNVYIISDEGVKRLDEVSPLAQSLK", "not soluble"],
  ["MGSDKIHHHHHHMIYCDHCVMPNTRPGINFTKDKEGKNICSACINHKNKENIDYKARFKELEVLCDKYRRMNGKFEYDCAIAVSGGKDSHFQVHIMKEKLGMNPILFSVEDNFTMTEAGKKNLKNLSETFGCHIISLKPDIKTQKKVMLKTFEKYGKPTWFIDRLIYSYPFAMALKFNTPLLVYGENVSYEYGGSDTEETPSAKEIFLNGVASDLNINEFIDDEIKEENLQLFFNPNKDKLDKLNPIYLSYFVKWNSYSNYIFAKSRGFTDLEGEWDRTMCAENFDQVDSIGYILHAWMKYPKFGHACASDYAARFVRYGLLSRKEAIELVQKRDHKLDNKCVEDFCNFIGISKTTFWKIVEKHYNMDLFYKNDFGEFKLKNKLQ", "not soluble"]
]}
